Measured %Inh, listed per entry.
tested on: CLK4; settings: concentration: 1 μM, replicates: in singlicate; n = 1
# unit: % | format: bare number

Examples from the recorded data:
molecule: COc1ccccc1CNC(=O)c1cc(C(=O)c2ccccc2C)c[nH]1
%Inh (%): 9

molecule: Cl.c1ccc(-c2n[nH]cc2-c2ccnc(-c3ccc(CN4CCOCC4)cc3)c2)nc1
%Inh (%): 0

molecule: Cc1cc(-c2ccc3c(c2)CC[C@@H](N[C@@H](C)c2ccccc2)C3)cnc1N.Cl
%Inh (%): 10

molecule: Nc1ncnc2[nH]c(-c3ccccc3)nc12
%Inh (%): 71

molecule: O=C(Nc1n[nH]c2nc(-c3nccs3)c(Br)cc12)C1CCCC1
%Inh (%): 0

molecule: Cl.Oc1ccc(-c2nc(-c3ccccc3)[nH]c2-c2ccncc2)cc1
%Inh (%): 0

Q. Can you look up the measured %Inh of Cc1nnc(-c2ccc3occ(-c4ccc(S(C)=O)cc4)c3c2)[nH]1 (stereo not shown) for me?
A. 29

Q. // query: "CS(=O)(=O)c1ccc(-c2c(-c3ncn[nH]3)sc(N3CCOCC3)c2C#N)cc1"
A. 0

Q. // query: "Cc1cccc(-c2nc(Nc3ccncc3)c3ccccc3n2)n1"
A. 0

Q. // query: "O=C(Nc1n[nH]c2nc(-c3nccs3)c(Br)cc12)C1CC1"
A. 0

* * *

tested on: FYN; settings: concentration: 1 μM, replicates: in singlicate; n = 1
property measured: %Inh (%)
# unit: % | format: bare number

molecule: Cc1c(Cn2ccn3c(=O)cc(N4CCOCC4)nc23)cccc1C(F)(F)F [GSK2289044]
measurement target: FYN
result unit: %
%Inh: 30

Q. Can you look up the measured %Inh of "Cn1ccc2ncnc(Oc3ccc(Nc4nc5ccccc5[nH]4)cc3)c21" for me?
A. 0

Q. // query: O=S(=O)(c1ccc(-c2ccnc3[nH]ccc23)cc1)N1CCCC1 [GSK846226]
A. 25

Q. // query: Cc1cccc(-c2nc(Nc3cccc(C(N)=O)c3)c3ccccc3n2)n1 [GW876019]
A. 0

Q. // query: CC1=C(C(=O)Nc2cc3cn[nH]c3cc2F)C(c2ccc(C(F)(F)F)cc2)CC(=O)N1 (stereo not shown) [GSK429286]
A. 26

Q. // query: "Cn1ccc2ncnc(Oc3ccc(NC(=O)Nc4ccccc4)cc3)c21"
A. 4

Q. // query: "CC(C)(C)c1ccc(C(=O)Nc2cn3cc(Cl)ccc3n2)cc1"
A. 99.3

* * *

Measured %Inh, listed per entry.
system: PIK3CB; details: concentration: 1 μM, replicates: in singlicate; n = 1
Just the number plus its unit, please.

Examples from the recorded data:
smiles representation: Cc1cccc(-c2nc(Nc3ccc4[nH]ncc4c3)c3ccccc3n2)n1
measurement target: PIK3CB
property measured: %Inh
result: 7%
--
smiles representation: Cl.c1ccc(-c2n[nH]cc2-c2ccnc(-c3ccc(CN4CCOCC4)cc3)c2)nc1
measurement target: PIK3CB
property measured: %Inh
result: 0%
--
smiles representation: Cc1cccc(-c2cc(Nc3ccncc3)c3ccccc3n2)n1
measurement target: PIK3CB
property measured: %Inh
result: 0%

Shifting focus to the compound that follows.
Q. Can you look up the measured %Inh of "CCn1c(-c2cccnc2O)nc2cnccc21" for me?
A. 0%

* * *

system: TIE1; conditions: concentration: 1 μM, replicates: in singlicate; n = 1
property measured: %Inh (%)
# unit: % | format: bare number

Examples from the recorded data:
compound: CCCc1ccc(S(=O)(=O)NC2CCN(c3ccnc(Nc4ccc(F)cc4)n3)C2)cc1 (stereo not drawn)
%Inh, %: 0
//
compound: COc1cccc(NC(=O)NC2CCN(c3ccnc(Nc4ccc(F)cc4)n3)C2)c1 (stereo not drawn)
%Inh, %: 0
//
compound: O=C(Nc1n[nH]c2nc(-c3nccs3)c(Br)cc12)C1CC1
%Inh, %: 0
//
compound: Cn1ccc2ncnc(Oc3ccc(Nc4nc5ccccc5[nH]4)cc3)c21
%Inh, %: 5
//
compound: Cc1cccc(-c2nc(Nc3ccncc3)c3ccccc3n2)n1
%Inh, %: 20

Q. Notebook entry, TIE1 assay: %Inh of "Fc1cc(Cl)ccc1Nc1ccnc2cc(I)ccc12" = ?
A. 0

* * *

Kd, BRSK2: measured values
# unit: nM | format: bare number

compound: O=C(Nc1n[nH]c2nc(-c3nccs3)c(Br)cc12)C1CCCC1 [SB-742609]
result unit: nM
numeric result: 330

Shifting focus to the compound that follows.
Q. Can you look up the measured Kd of O=C(Nc1n[nH]c2nc(-c3nccs3)c(Br)cc12)C1CC1 [SB-742251] for me?
A. 140

* * *

tested on: CDK5; conditions: concentration: 1 μM, replicates: in singlicate; n = 1
property measured: %Inh
Just the number plus its unit, please.

Examples from the recorded data:
smiles representation: COc1ccccc1-c1ccc2c(NC(=O)C3CC3)n[nH]c2n1
measurement target: CDK5
%Inh: 0%
//
smiles representation: Nc1nc(-c2nccs2)c(-c2ccnc3ccccc23)s1
measurement target: CDK5
%Inh: 0%
//
smiles representation: NC(=O)c1nnc2ccccc2c1N
measurement target: CDK5
%Inh: 0%

Q. Can you look up the measured %Inh of "Cc1cccc(-c2nc(Nc3cccc(C(N)=O)c3)c3ccccc3n2)n1" for me?
A. 0%

Q. // query: "Cn1cncc1-c1ccc2ncnc(Nc3ccc(OCc4ccccc4)cc3)c2c1"
A. 3%

Q. // query: "Cc1cccc(-c2nc(-c3ccc(S(C)(=O)=O)cc3)sc2-c2ccnc(NCCc3ccccc3)c2)c1"
A. 9%

Q. // query: "Cc1csc(-c2nc(Nc3ccncc3)c3ccccc3n2)n1"
A. 13%

Q. // query: "COc1ccc(Nc2nccc(-c3cccc(NC(=O)c4cc5cc(F)ccc5[nH]4)c3)n2)cc1"
A. 1%

Q. // query: "Fc1cc(Cl)ccc1Nc1ccnc2cc(-c3ccc(CN4CCCCC4)o3)ccc12"
A. 0%

* * *

system: PIK3C2G; conditions: concentration: 1 μM, replicates: in singlicate; n = 1
Measured %Inh, listed per entry.
# unit: % | format: bare number

Examples from the recorded data:
molecule: CCn1c(-c2ccccn2)nc2cnccc21 [SB-736398]
%Inh, %: 0
--
molecule: COC(=O)c1c(-c2ccccc2)c2cc(OC)ccc2c(=O)n1Cc1ccccc1
%Inh, %: 0
--
molecule: COc1cc2nccc(Nc3ccc(NC(=O)c4ccc(C)cc4)c(O)c3)c2cc1OC.Cl [GW440132]
%Inh, %: 0

Q. Notebook entry, PIK3C2G assay: %Inh of O=C(Nc1n[nH]c2nc(-c3nccs3)c(Br)cc12)C1CC1 [SB-742251] = ?
A. 0

Q. // query: Cc1ccc(NC(=O)Nc2cccc(Cl)c2)cc1-c1ccc(C(=O)Nc2ccncc2)cc1 [GSK1398468]
A. 0

Q. // query: Cc1c(Cn2ccn3c(=O)cc(N4CCOCC4)nc23)cccc1C(F)(F)F [GSK2289044]
A. 6

Q. // query: "CC(=O)Nc1nc2cnc(Nc3cc(NC(=O)c4cccc(CCC#N)c4)ccc3C)nc2s1"
A. 78

Q. // query: Cc1cccc(-c2nc(Nc3ccncc3)c3ccccc3n2)n1 [GW855857]
A. 0

Q. // query: CC1=C(C(=O)Nc2cc3cn[nH]c3cc2F)C(c2ccc(C(F)(F)F)cc2)CC(=O)N1 (stereo not shown) [GSK429286]
A. 0

* * *

Measured %Inh, listed per entry.
system: PIP5K1C; settings: concentration: 1 μM, replicates: in singlicate; n = 1

compound: Cc1ccc(NC(=O)Nc2cc(C(C)(C)C)nn2-c2ccccc2)cc1
measurement target: PIP5K1C
%Inh: 29%

Q. Can you look up the measured %Inh of Cc1nnc(-c2ccc3occ(-c4ccc(S(C)=O)cc4)c3c2)[nH]1 (stereo not shown) for me?
A. 63%

Q. // query: "Cl.Oc1ccc(-c2nc(-c3ccccc3)[nH]c2-c2ccncc2)cc1"
A. 49%

Q. // query: "COc1ccc2nc(-c3cccc(C)n3)nc(Nc3ccncc3)c2c1"
A. 28%

* * *

tested on: BRSK1
property measured: pKd
Keep in mind that pKd stands for -log10 of concentration in molar terms.

compound: O=C(Nc1n[nH]c2nc(-c3nccs3)c(Br)cc12)C1CC1 [SB-742251]
numeric result: 6.64

Shifting focus to the compound that follows.
Q. Notebook entry, BRSK1 assay: pKd of O=C(Nc1n[nH]c2nc(-c3nccs3)c(Br)cc12)C1CCCC1 [SB-742609] = ?
A. 6.37

* * *

tested on: BMX; conditions: concentration: 1 μM, replicates: in singlicate; n = 1
Please respond with criterion met when measured %Inh is strictly beneath 10%, and with criterion not met in all other cases.

Before answering, review these 5 worked examples.
compound: COC(=O)c1c(-c2ccccc2)c2cc(C(=O)O)ccc2c(=O)n1Cc1ccccc1
measurement target: BMX
class label: criterion not met
//
compound: Cc1c(O)cccc1Nc1ccnc2ccc(C(F)(F)F)cc12.Cl
measurement target: BMX
class label: criterion met
//
compound: Cc1ccc(C(=O)Nc2ccc(Nc3ccnc4cc(-c5ccccn5)ccc34)cc2O)cc1.Cl
measurement target: BMX
class label: criterion not met
//
compound: CCCc1ccc(S(=O)(=O)NC2CCN(c3ccnc(Nc4ccc(F)cc4)n3)C2)cc1 (stereo not drawn)
measurement target: BMX
class label: criterion met
//
compound: Cn1cncc1-c1ccc2ncnc(Nc3ccc(OCc4ccccc4)cc3)c2c1
measurement target: BMX
class label: criterion not met

Q. Determine if "NC(=O)c1nnc2ccccc2c1N" shows %Inh strictly lower than 10%.
A. criterion not met

Q. // query: "Cl.c1ccc(-c2n[nH]cc2-c2ccnc(-c3ccc(CN4CCOCC4)cc3)c2)nc1"
A. criterion not met

Q. // query: "CN1C(=O)C(Nc2ccc(Cl)c(C(=O)O)c2)=C(c2ccc(Cl)cc2)C1=O"
A. criterion met

Q. // query: "O=C(Nc1ccccc1)Nc1cccc(Oc2ccc3nccn3n2)c1"
A. criterion met

Where these numbers come from: paper PMC5540273
